- TARGET_OR_TEST_SYSTEM: HLA-DR6(13) (human)
- ASSAY_EXPLANATION: binding to purified HLA
OBSERVED_PROPERTY: IC50 (nM)

a: NGIEWAIANNMDVIN [B. amyloliquifaciens subtilisin BPN' Y217L epitope peptide, amino acids 109-123]
b: GSISYPARYANAMAV [B. lentus subtilisin epitope peptide, amino acids 157-171]
c: SYPARYANAMAVGAT [B. lentus subtilisin epitope peptide, amino acids 160-174]
Please list the entries, largest IC50 first. Answer format: the labels, in the requested order.
b, c, a
(b: 2010 nM, c: 559 nM, a: 9.8 nM)
